# Kb listing for each entry below
system: Calf thymus DNA; test: Binding affinity to calf thymus DNA assessed as binding constant incubated for 10 mins by UV-Vis absorption spectroscopic method; assay type: nucleic-acid assay; settings: Bos taurus
Give the value, in units of ×10⁵ /M, as a plain number.

# Mol, Kb, ×10⁵ /M
records = [
    ("Fc1ccc(NC(=S)N/N=C\\c2ccnc3ccccc23)cc1", 2.37),
    ("S=C(N/N=C\\c1ccnc2ccccc12)Nc1cccc2ccccc12", 2.54),
    ("S=C(N/N=C\\c1ccnc2ccccc12)Nc1cccnc1", 1.96),
    ("COc1ccc(NC(=S)N/N=C\\c2ccnc3ccccc23)cc1", 1.33),
]

Now let's try a different one.
Q: Request: Kb, test system Calf thymus DNA, entry `Cc1ccc(NC(=S)N/N=C\c2ccnc3ccccc23)cc1`
Ans: 3.56

---

# selectivity ratio listing for each entry below
assay: Selectivity index, ratio of CC50 for mouse RAW264.7 cells to ratio of IC50 for human MCF7 cells; type: toxicity; conditions: RAW264.7 cells and MCF7 cells, read-out: Ratio CC50/IC50

# Mol, selectivity ratio
records = [
    ("COc1ccc(NC(=S)N/N=C\\c2ccnc3ccccc23)cc1", 102),
    ("O=[N+]([O-])c1ccc(NC(=S)N/N=C\\c2ccnc3ccccc23)cc1", 102),
]

Q: For `Cc1ccc(NC(=S)N/N=C\c2ccnc3ccccc23)cc1` , what is its reported selectivity ratio?
Ans: 51.5

---

test system: Calf thymus DNA; assay: Binding affinity to calf thymus DNA assessed as hyperchromicity at 30 uM incubated for 10 mins by UV-Vis absorption spectroscopic method relative to control; type: nucleic-acid assay; conditions: Bos taurus
Please enter true (1) where Activity is greater than or equal to 10%, and false (0) where it is lower.

# Mol, Answer label
rows = [
    ("Fc1ccc(NC(=S)N/N=C\\c2ccnc3ccccc23)cc1", "true (1)"),
    ("CCc1ccc(NC(=S)N/N=C\\c2ccnc3ccccc23)cc1", "true (1)"),
    ("C=CCNC(=S)N/N=C\\c1ccnc2ccccc12", "false (0)"),
    ("S=C(N/N=C\\c1ccnc2ccccc12)Nc1cccc2ccccc12", "true (1)"),
]

Q: Is reported Activity greater than or equal to 10% here: `Cc1ccc(NC(=S)N/N=C\c2ccnc3ccccc23)cc1`
Ans: true (1)

---

biological target: Albumin (Bos taurus); assay: Binding affinity to bovine serum albumin assessed as binding constant incubated for 10 mins by UV-Vis absorption spectroscopic method; assay type: ADME; conditions: cattle, isolated protein
Sequence (P02769 whole entry): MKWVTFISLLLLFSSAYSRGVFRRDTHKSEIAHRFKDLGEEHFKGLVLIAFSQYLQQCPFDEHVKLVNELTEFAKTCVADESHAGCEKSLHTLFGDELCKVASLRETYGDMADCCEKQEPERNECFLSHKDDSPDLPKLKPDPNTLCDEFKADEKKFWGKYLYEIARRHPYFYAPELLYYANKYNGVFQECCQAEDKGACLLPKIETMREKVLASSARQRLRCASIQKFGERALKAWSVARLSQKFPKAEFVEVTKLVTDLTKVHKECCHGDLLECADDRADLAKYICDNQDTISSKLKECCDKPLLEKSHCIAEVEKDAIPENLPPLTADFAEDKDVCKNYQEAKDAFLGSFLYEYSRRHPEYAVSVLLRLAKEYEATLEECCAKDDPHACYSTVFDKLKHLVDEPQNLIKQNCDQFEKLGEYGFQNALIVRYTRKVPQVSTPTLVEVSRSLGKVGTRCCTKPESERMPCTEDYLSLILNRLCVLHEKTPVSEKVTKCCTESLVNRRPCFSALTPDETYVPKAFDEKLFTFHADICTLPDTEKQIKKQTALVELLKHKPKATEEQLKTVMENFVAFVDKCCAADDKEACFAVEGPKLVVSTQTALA
Assay endpoint: Kb

Q: For `COc1ccc(NC(=S)N/N=C\c2ccnc3ccccc23)cc1` , what is its reported Kb?
Ans: 5.44 ×10⁴ /M

Q: For `S=C(N/N=C\c1ccnc2ccccc12)Nc1ccccc1` , what is its reported Kb?
Ans: 7.29 ×10⁴ /M

Q: For `S=C(N/N=C\c1ccnc2ccccc12)Nc1cccnc1` , what is its reported Kb?
Ans: 8.03 ×10⁴ /M

Q: For `Fc1ccc(NC(=S)N/N=C\c2ccnc3ccccc23)cc1` , what is its reported Kb?
Ans: 8.4 ×10⁴ /M

---

biological target: DNA topoisomerase 2-alpha (Homo sapiens); experiment: Inhibition of recombinant human topoisomerase 2alpha using supercoiled pUC19 plasmid DNA as substrate at 10 uM incubated for 45 mins by ethidium bromide dye based agarose gel electrophoresis method
Activity calls are given as the source filed them. No cut-off for these calls is given here.
Outcome (select one): active, inactive

Solved cases (4 shown):
# Mol, Answer label
rows = [
    ("C=CCNC(=S)N/N=C\\c1ccnc2ccccc12", "active"),
    ("S=C(N/N=C\\c1ccnc2ccccc12)Nc1cccc2ccccc12", "active"),
    ("Cc1ccc(NC(=S)N/N=C\\c2ccnc3ccccc23)cc1", "inactive"),
    ("S=C(N/N=C\\c1ccnc2ccccc12)Nc1ccc(Cl)cc1", "active"),
]

Q: How did this test come out for `CCc1ccc(NC(=S)N/N=C\c2ccnc3ccccc23)cc1` ?
Ans: inactive
